Tested on: MS2 coat protein
Experiment: apparent KD of MS2 coat protein, switch OFF state (with FMN for OFF switches, without FMN for ON switches); designed switch direction (-1 OFF switch, 1 ON switch): 1; higher = weaker reporter binding
Details: FMN input: 0 or 200 uM; Eterna round: R93 (includes R88 designs)
Would you mind labelling by apparent KD of MS2 coat protein? At or over 30 nM is 1, under is -1.

| Chain Sequence | Test System | Class Label |
| --- | --- | --- |
| AUACUACAUGAGGAUCACCCAUGUUGAAAUAUGGAAGGAUAUACGUAGUAAAAUAACUACGUAGAAGGUCCAGAAA [SS1 MT 22] | MS2 coat protein | -1 |
| AUGGUCAAGUGUGAGGAUAUCCAGGCUCCCACAUGAGGAUCACCCAUGUUUUAAAGAGCGUAAAGGGAGAAGGUACGAACGCCAC [Isorvere] | MS2 coat protein | -1 |
| AAAAUACAUGAGGAUCACCCAUGUGAAAAUAUGGGAGGAUAUACAAACACGAAAGUGAAAGUAGAAGGCCUAAAAA [SS! MT 15] | MS2 coat protein | 1 |
| AAAAAACAUGAGGAUCACCCAUGUCUUCGGACGUGAGGAUAUGUACAGACUUCGGUCUGUACAGAAGGCAUGAAAA [SS1 - 1058] | MS2 coat protein | 1 |
| GGGAGACAUGAGGAUCACCCAUGUGAGAAGAGGCGAGGAUAUCGAAAAAAAAAAAAAAAACGAGAAGGCGCGAGAG [salish99-SS1-005] | MS2 coat protein | -1 |
| AGAAAUAAAAGAGAGGAUAUCCAAAAGAAAACAUGAGGAUCACCCAUGUAAAAGAAAAUAAAAUGGGAGAAGGCUCAUAUUAAAG [JL Skelter 2 mod 3] | MS2 coat protein | 1 |
| AAUAUAUUAUCUGAGGAUAUCAUAGGAAAAACAUGAGGAUCACCCAUGUGGGAAACCUGGUCGGGUGAGAAGGUGGAUAAUAUAU [Samwise Clockwise 33 - Jieux - Same State 2] | MS2 coat protein | 1 |
| AUAUAUAUAAGGUAGGAUAUCCUAAAGUAAACAUGAGGAUCACCCAUGUAAAGAAAGAAACUCAUGGAGAAGGACCAUAUAUAUA | MS2 coat protein | -1 |
| GAAAAACAUGAGGAUCACCCAUGUAGAAAUAUGGGAGGAUAUACGAAGUCGAAAGUCAAAGUAGAAGGCCUAAAAG [Garnet 28] | MS2 coat protein | 1 |
| AAAAUAUAAAGAGAGGAUAUCCAAAGAACCACAUGAGGAUCACCCAUGUAAAGAAAGAAUAAGUGGGAGAAGGCUCAAAUAAUAA [Designing denovo 24] | MS2 coat protein | 1 |
| UCGUCCUCGUGCUAGGAUAUCCAUCGUAAAACAUGAGGAUCACCCAUGUAGAAAUGCGCCGACGAGGAGAAGGAGCGAUGUGGAU [Lazabima] | MS2 coat protein | -1 |
| ACAAGACAUGAGGAUCACCCAUGUAAAGAAAACGCAGGAUAUGCAAAAAAAUUCAUGGGUGCAGAAGGGCGAAAAA [Default title] | MS2 coat protein | 1 |

----------
Tested on: MS2 coat protein
Assay: apparent KD of MS2 coat protein, switch OFF state (with FMN for OFF switches, without FMN for ON switches); designed switch direction (-1 OFF switch, 1 ON switch): 1; higher = weaker reporter binding
Settings: FMN input: 0 or 200 uM; Eterna round: R93 (includes R88 designs)
apparent KD of MS2 coat protein reference

| Chain Sequence | Test System | apparent KD of MS2 coat protein, nM |
| --- | --- | --- |
| GAAAAACAUGAGGAUCACCCAUGUAGAAAUAUGGGAGGAUAUACAAAGACGAAAGUCAAAGUAGAAGGCCUAAAAG [Mat - Mod of Eli] | MS2 coat protein | 69.3 |
| AACUAACAUGAGGAUCACCCAUGUUGCAGCGGUUGAGGAUAUGUGGGUGAAAAUAGCAUGGCAGAAGGCGAGUGUA [SameState1 Malc#25] | MS2 coat protein | 52.2 |
| AAGAAACAUGAGGAUCACCCAUGUGAUAAUAUGGGAGGAUAUACGAAGACGAAAGACGAAGUAGAAGGCCUAAGAA [Garnet 46] | MS2 coat protein | 138 |
| AACAUACAUGAGGAUCACCCAUGUUUAUAAAAACAAGGAUAUAUAAGAACAAACAAACAAAUAGAAGGUGUAAAAA [Default title] | MS2 coat protein | 17.2 |
| AGGAAACAUGAGGAUCACCCAUGUAAAAAUAUGGGAGGAUAUUGGAAUAAAAUAAAGAACCGAGAAGGCCUAAAAA [59%, Flamingo, 6] | MS2 coat protein | 219 |
| AAAAUAUAAAGGAAGGAUAUCCAAAGGACUACAUGAGGAUCACCCAUGUAAAGAAAGAAUAAAUGGGAGAAGGUCCAAAUAAUAA [Designing denovo 32] | MS2 coat protein | 180 |
| AAAUAAAUGACUAAGGAUAUAUCGAAGAAGACAUGAGGAUCACCCAUGUAAUAAUAAAAAGGGUGGUAGAAGGUAGUCAACAAAC [Mod 6 of Pariah 4 by Hyphema in Round 1] | MS2 coat protein | 233 |
| AACAUACAUGAGGAUCACCCAUGUUCCGGCAGGGCAGGAUAUCCAUCGAAAGUGUUAUAAGGAGAAGGGCCAUAAA [JR_SS001_Sub013] | MS2 coat protein | 93.3 |
| AAAAAACAUGAGGAUCACCCAUGUAUAAAAUGGGAAGGAUAUACUAAGACGAAAGUCAUAGUAGAAGGUCCAAAAA [76%, Meechl, 12] | MS2 coat protein | 193 |
| CGUGAACAUGAGGAUCACCCAUGUAGCGGGAGACAAGGAUAUGGGAGGCGAAAUCGCGGAUCAGAAGGUGUAAGCG [Zace] | MS2 coat protein | 16.5 |
| CGCUCACAUGAGGAUCACCCAUGUCCUAGGAGGUCAGGAUAUAGCUCGGAUGCGUUGAGGCUAGAAGGGACAGGUG [JR_SS001_Sub606] | MS2 coat protein | 59.5 |
| GGUACGGCUAGUCAGGAUAUCAGGCGUAAGACAUGAGGAUCACCCAUGUCCUAAGAACAGGUAACUGAGAAGGGACAGGGCGUCC [JR_SS002_Sub414] | MS2 coat protein | 63.1 |
| AAAAAAAAAGUAGAGGAUAUCCGAGUGGUAACAUGAGGAUCACCCAUGUGAAGAAAGGAACAUGAGGAGAAGGCUACAAAAAAAAA [Normal (18/17)] | MS2 coat protein | 30.4 |
